Target: human IL-17A (human, UniProt Q16552 24-155)
Sequence (Q16552 24-155 limits assumed): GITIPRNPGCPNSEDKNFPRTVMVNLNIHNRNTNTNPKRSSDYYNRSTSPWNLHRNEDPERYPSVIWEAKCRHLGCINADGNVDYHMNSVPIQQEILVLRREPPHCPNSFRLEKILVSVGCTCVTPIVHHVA
Assay: cell-based or functional assay
observation.type: Potency (nM), IL-17-driven IL-6 production in HS27 cells
Answers are plain numbers, in nM.

Previously resolved entries follow.
IL17-TN-L7-A7 (antibody, V domains shown, Fully human monoclonal antibody from mRNA display) VH: EVQLLESGGGVVQPGTFLRLSCAATGFTFSAYGMHWVRQAPGRGLEWVAVTSYDGSNKYYADSVKGRFTISRDNSKNTLYLEMNSLRPEDTAVYYCAKVGASGDYYYSYGLDVWGQGTMVTVSS VL: QSGLTQPPSASGTPGQTVSISCSGSNSNIGSHSVNWYQQVPGAAPKLLMYGIGQRPSGVPDRFSVSQSGTSASLAISGLQSEDEADYYCATWDDSLGGYVFGSGTKVTVLG has a reported Potency (nM), IL-17-driven IL-6 production in HS27 cells of 1.8

IL17-TN-K7-B6 (antibody, V domains shown, Fully human monoclonal antibody from mRNA display) VH: EVQLVQSGAEVKKPGESLKISCKASGGSFRSYGISWVRQAPGQGLEWMGGITPILGTANYAQKFQGRVTITADESTTTAYMELSGLTSDDTAVYYCAREPNDFWNGYYTTHHFDYWGQGTPVTVSS VL: DVVMTQSPDFQSVTPKEKVTITCRASQNIGSALHWYQQKPDQSPKLLIKYASQSISGVPSRFSGSGSGTDFTLTINGLEAEDAGTYYCHQSTSLPHTFGQGTKLDIKR has a reported Potency (nM), IL-17-driven IL-6 production in HS27 cells of 4.5

IL17-TN-L7-C8 (antibody, V domains shown, Fully human monoclonal antibody from mRNA display; also called IL-TN-L7-C8) VH: EVQLVQSGAEVKKPGASVKVSCKASGYTFSDFDIDWVRQATGLGLEWMGWMNPNSGNTGVAPKFRGRVSMTFNTAIRTAYLELSSLRPDDTAVYFCARSSESEGITIGFDNWGQGTLVTVSS VL: SYELTQPPSVSVSPGQTASIPCSGDKLGNRYACWYKQKPGQPPVLVIYQDNKRPSGISERYSGSNYGDTATLTITGTQAMDEADYYCQTWDSTTGSYVFGTGTKVTVLG has a reported Potency (nM), IL-17-driven IL-6 production in HS27 cells of 4.5

Further cases:
IL17-TN-L7-G9 (antibody, V domains shown, Fully human monoclonal antibody from mRNA display) VH: EVQLLESGGGVVQPGRSLRLSCAASGFIFSNYGMHWVRQAPGKGLEWVAVISYDGSNKYYADSVKGRFTISRDNSKNTLYLEMNSLRPEDTAVYYCAKVGASGDYYYSYGLDVWGQGTTVTVSS VL: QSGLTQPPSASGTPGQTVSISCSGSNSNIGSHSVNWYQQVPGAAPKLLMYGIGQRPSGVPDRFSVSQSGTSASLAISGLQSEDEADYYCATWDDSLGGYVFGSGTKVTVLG has a reported Potency (nM), IL-17-driven IL-6 production in HS27 cells of 0.8
